measured attribute: melting point

O=C(CCc1ccc(CN2CCCC2)cc1)Nc1ccc(-c2ccc(Cl)cc2)cc1    179 to 181 °C
CC(c1ccc(CCNC(=O)c2ccc(-c3ccc(Cl)cc3)cc2)cc1)N1CCCC1 (stereo not shown)    152 to 153 °C
CCCCCc1ccc(NC(=O)CCc2ccc(CN3CCCC3)cc2)cc1    104 to 105 °C
CC(c1ccc(CCNC(=O)c2ccc(Br)cc2)cc1)N1CCCC1 (stereo not shown)    124 to 126 °C
CC(CNC(=O)c1ccc(-c2ccc(Cl)cc2)cc1)c1ccc(CN2CCCC2)cc1 (stereo not shown)    156 to 157 °C
CCCC(=O)Cc1ccc(C(=O)NCCc2ccc(CN3CCCC3)cc2)cc1    115 to 117 °C

Qu. Name the recorded melting point for COc1ccc(-c2ccc(C(=O)NCCc3ccc(C4CCCN4C)cc3)cc2)cc1 (stereo not shown) .
Ans. 165 to 167 °C

----------
measured attribute: melting point

Qu. Fill in: melting point of Cc1ccc(-c2ccc(C(=O)NCCc3ccc(C(C)N4CCCC4)cc3)cc2)cc1 (stereo not drawn) is ___
Ans. 160 to 163 °C

Qu. Please report the recorded melting point for CN1CCCC1c1ccc(CCNC(=O)c2ccc(OCC3CC3)cc2)cc1 (stereo not drawn) .
Ans. 143 to 145 °C

Qu. Fill in the blank: the reported melting point of CC(CNC(=O)c1ccc(Br)cc1F)c1ccc(CN2CCCC2)cc1 (stereo not drawn) is ____.
Ans. 80 to 82 °C

----------
measured attribute: melting point

// solved cases for melting point follow
O=C(/C=C/c1ccc(CN2CCCC2)cc1)Nc1ccc(-c2ccc(Cl)cc2)cc1    207 to 209 °C
O=C(Cc1ccc(CN2CCCC2)cc1)NCc1ccc(Br)cc1 [Reference Example 38]    107 to 109 °C
CC(c1ccc(CCNC(=O)c2ccc(-c3ccc(F)cc3)cc2)cc1)N1CCCC1 (stereo not drawn)    141 to 143 °C

Qu. Form field: reported melting point of `CCCCCc1ccc(C(=O)NCCc2ccc(CN3CCCC3)cc2)cc1`
Ans. 91 to 93 °C

Qu. I would be grateful if you could share the reported melting point for `O=C(NCCc1ccc(-c2ccc(Cl)cc2)cc1)c1ccc(CN2CCCC2)cc1` .
Ans. 187 to 189 °C

Qu. Can you share its melting point? I mean this molecule: O=C(/C=C/c1ccc(CN2CCCC2)cc1)Nc1ccc(Br)cc1 [Reference Example 43]
Ans. 184 to 186 °C

Qu. Name the reported melting point value associated with the molecule CCC(c1ccc(CCNC(=O)c2ccc(-c3ccc(Cl)cc3)cc2)cc1)N1CCCC1 (stereo not drawn)
Ans. 151 to 153 °C

Qu. Could you share which melting point value was measured for CN1CCCC1c1ccc(CCNC(=O)c2ccc(-c3ccc(Cl)cc3)cc2)cc1 (stereo not drawn) ?
Ans. 169 to 171 °C

Qu. Quick one: melting point for O=C(CCc1ccc(CN2CCCC2)cc1)Nc1ccc(Br)cc1 [Reference Example 41] ?
Ans. 137 to 138 °C

----------
- experimental system: SLC-1 (Homo sapiens, UniProt Q99705)
- Construct: expressed in transfected cells; host or cells: CHO cells (human SLC-1 clone 57 / rat SLC-1 clone 44), membrane fraction
- Sequence (Q99705 whole entry, species assumed): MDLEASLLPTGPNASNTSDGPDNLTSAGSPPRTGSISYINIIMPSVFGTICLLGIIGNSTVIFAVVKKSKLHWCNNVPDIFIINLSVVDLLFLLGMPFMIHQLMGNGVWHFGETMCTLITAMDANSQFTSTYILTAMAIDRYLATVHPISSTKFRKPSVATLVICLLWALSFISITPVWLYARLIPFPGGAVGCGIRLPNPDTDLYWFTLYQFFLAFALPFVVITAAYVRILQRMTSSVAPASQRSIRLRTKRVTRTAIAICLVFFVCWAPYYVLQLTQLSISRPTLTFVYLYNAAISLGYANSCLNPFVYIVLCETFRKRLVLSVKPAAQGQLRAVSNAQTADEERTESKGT
- method notes: Antagonistic activity using GTPγS binding assay (SLC-1 expression CHO cell membrane fraction, MCH-stimulated)
- Format: biochemical, human/rat
- particulars: [35S]-GTPγS binding to SLC-1 expression CHO cell membrane fraction in the presence of MCH, 25° C., 1 hr; read-out: Inhibitory activity (IC50: nM)
measured attribute: IC50
Value and unit, in that order.

Qu. Which measured IC50 value corresponds to CC(c1ccc(CCNC(=O)c2ccc(-c3ccc(Cl)cc3)cc2)cc1)N1CCCCCC1 (stereo not shown) [Example 67] ?
Ans. 3 nM

----------
melting point listing for selected molecules.

CC(c1ccc(CCNC(=O)c2ccc(-c3ccc(OC(F)(F)F)cc3)cc2)cc1)N1CCCC1 (stereo not drawn)    135 to 137 °C
CC(c1ccc(CCNC(=O)c2ccc(-c3ccc(Cl)cc3)cc2)cc1)N1CCSCC1 (stereo not drawn)    168 to 169 °C
CC(C)C(c1ccc(CCNC(=O)c2ccc(-c3ccc(Cl)cc3)cc2)cc1)N1CCCC1 (stereo not drawn)    143 to 145 °C
O=C(COc1ccc(CN2CCCC2)cc1)Nc1ccc(Br)cc1 [Reference Example 46]    143 to 145 °C
O=C(NCCc1ccc(CN2CCCC2)cc1)c1ccc(OCCC2CC2)cc1F    66 to 68 °C
CC(c1ccc(CCNC(=O)c2ccc(-c3ccc(C(F)(F)F)cc3)cc2)cc1)N1CCCC1 (stereo not drawn)    149 to 151 °C
COc1ccc(-c2ccc(C(=O)NCCc3ccc(C(C)N4CCCC4)cc3)cc2)cc1 (stereo not drawn)    163 to 165 °C
CC(CNC(=O)c1ccc(-c2ccc(Cl)cc2)cc1F)c1ccc(CN2CCCC2)cc1 (stereo not drawn)    119 to 121 °C
O=C(Cc1ccc(CN2CCCC2)cc1)NCc1ccc(-c2ccc(Cl)cc2)cc1    151 to 153 °C
CCCCCc1ccc(C(=O)NCC(C)c2ccc(CN3CCCC3)cc2)cc1 (stereo not drawn)    91 to 92 °C

Qu. What value of melting point has been reported for the following molecule? `O=C(NCCc1ccc(CN2CCCC2)cc1)c1ccc(OCC2CC2)cc1F`
Ans. 90 to 92 °C

Qu. Which melting point is listed for CC(c1ccc(CCNC(=O)c2ccc(-c3ccccc3)cc2)cc1)N1CCCC1 (stereo not drawn) ?
Ans. 136 to 138 °C

----------
# maps each entry to its melting point

Known melting point results, listed for orientation:
CCCCCc1ccc(C(=O)NCCc2ccc(C(C)N3CCCC3)cc2)cc1 (stereo not drawn)    76 to 77 °C
CCC(c1ccc(CCNC(=O)c2ccc(Br)cc2)cc1)N1CCCC1 (stereo not drawn)    90 to 92 °C

Would you kindly look at the next entry?
Qu. Looking for the measured melting point of `O=C(NCCc1ccc(CN2CCCC2)cc1)N1CCC(c2ccc(Cl)cc2)CC1` , can you help?
Ans. 116 to 117 °C
